runDescription: NCI Yeast Anticancer Drug Screen. Data for the rad18 strain (AID 177)
measurementConditions: S. cerevisiae rad18 mutant growth inhibition; at 1.2 µM; hits give high values
This is part of a sample that, as a whole, favours compounds with a hit. Of some 79,000 tested, about 15% had one in any assay.
outcomeMeasure: growth inhibition (%)
Answer with a number only, understood to be in %.

Use these answered entries as a reference point.
{"compound": "CN1Cc2ccccc2/C=C\\c2ccccc21", "growth inhibition / %": 0}
{"compound": "CC(C)/C(Cl)=N\\OC(=O)Nc1ccccc1F", "growth inhibition / %": -6}
{"compound": "CCC(=O)c1cccc2ccccc12", "growth inhibition / %": 1}
{"compound": "O=C(OCCN1CCCCCC1)C(c1ccsc1)C1CCCCC1 (stereo not given)", "growth inhibition / %": 7}
{"compound": "COC1=CC(=O)C(C2(OC(C)C)OC(=O)C(Cl)=C2Cl)=CC1=O (stereo not given)", "growth inhibition / %": 7}

q: Report growth inhibition for c1ccc2c(c1)c1ncccc1c1nccnc21
a: -10

q: Return growth inhibition (reported value) for this compound: CN1c2ccc(Cl)cc2C(=O)NC1c1ccc([N+](=O)[O-])s1 (stereo not given)
a: 3

q: State, in one line, measured growth inhibition of O=C(CCCN1CCC2(CC1)CC(=O)N(N1CCCCCC1)C2=O)c1ccc(F)cc1
a: 29

q: Complete the entry with growth inhibition for CN(C)c1ccc(Sc2ccc3nc(N)nc(N)c3c2)cc1
a: 3

q: Give recorded growth inhibition. CCCCCCCCCCCCCCCCCCN(C)CC(COP(=O)([O-])OCC[N+](C)(C)C)OC (stereo not given)
a: -6

q: Please supply the value of reported growth inhibition for the item O=C(c1ccc(Cl)cc1Cl)C(Cl)Cl
a: -30

----------
runDescription: NCI Yeast Anticancer Drug Screen. Data for the bub3 strain (AID 167)
measurementConditions: S. cerevisiae bub3 mutant strain, at 50.0 µM (retest, dose inferred, filed as 5.0)
About 79,000 compounds went through this panel and 15% of them were active in at least one assay; those are over-represented in the sample as a whole. Active and inactive are the calls of the source. Cut-off read from the data, not from the text of the source: active = growth inhibition above about 70%; inactive = the rest.
Choose one outcome from this list and give only that: Y for active, N for inactive

Use the examples below as a reference point.
{"compound": "CC(=O)OC1CCC2(C)C(=CCC3C4CCC5(OC6CC(C)CN(C(C)=O)C6C5C)C(C)=C4C(=O)C32)C1 (stereo not drawn)", "cat": "Y"}
{"compound": "Cc1cc2c(cc1C(=O)CCC(=O)O)CC1(C2)Cc2cc(C)c(C(=O)CCC(=O)O)cc2C1", "cat": "N"}
{"compound": "O=C1C(Nc2ccccc2)=C(Oc2ccccc2)C(=O)c2ccccc21", "cat": "N"}
{"compound": "COc1cc(C2c3cc4c(cc3OC(NNc3ccccc3)C2C)OCO4)cc(OC)c1OC (stereo not drawn)", "cat": "Y"}
{"compound": "O=C(c1cc(Br)ccc1O)c1cc(Br)ccc1O", "cat": "Y"}

Then there is this compound:
q: Outcome logged for Nc1ccc2c(c1)C(=O)c1cccc(N)c1C2=O in this assay:
a: Y

----------
Listed below: growth inhibition values for each entry.
runDescription: NCI Yeast Anticancer Drug Screen. Data for the mlh1 strain (AID 171);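 further: 0% = growth of vehicle-treated control cultures of the same strain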
measurementConditions: S. cerevisiae mlh1 strain growth inhibition; at 1.2 µM; hits give high values
The panel holds about 79,000 compounds, 15% with a hit somewhere; the sample as a whole holds those more often.
Just the number please, in %, no unit attached.

{"compound": "CCCCCCCCCCCC1=C(O)C(=O)C=C(O)C1=O", "outcomeMeasure": "growth inhibition", "measureUnit": "%", "recordedValue": -12}
{"compound": "Cc1c(Cl)ccc2c1S(=O)(=O)c1cccc(Cl)c1-2", "outcomeMeasure": "growth inhibition", "measureUnit": "%", "recordedValue": -3}

q: Provide measured growth inhibition value, entry: Cc1c(C2=C(Br)C(=O)N(C)C2=O)c(=O)n(C)c(=O)n1C
a: 0

q: Report growth inhibition, nothing else, for this compound: NC(=NCc1ccccc1)N/N=C\c1ccnc2ccccc12
a: -2

q: Recall and state the measured growth inhibition for COc1cc2ccc(/C=C\[N+](=O)[O-])cc2cc1OC .
a: -36

q: Please report growth inhibition for the following compound: C=CC(C)(O)CCC1C(=C)C(O)CC2C(C)(C)CCCC12C (stereo unspecified)
a: -4
